Hey, just so you know, these numbers are from ChEMBL document CHEMBL1146879.

# System Tested: Melanin-concentrating hormone receptor 1 (Homo sapiens, UniProt Q99705)
# Sequence (Q99705 whole entry): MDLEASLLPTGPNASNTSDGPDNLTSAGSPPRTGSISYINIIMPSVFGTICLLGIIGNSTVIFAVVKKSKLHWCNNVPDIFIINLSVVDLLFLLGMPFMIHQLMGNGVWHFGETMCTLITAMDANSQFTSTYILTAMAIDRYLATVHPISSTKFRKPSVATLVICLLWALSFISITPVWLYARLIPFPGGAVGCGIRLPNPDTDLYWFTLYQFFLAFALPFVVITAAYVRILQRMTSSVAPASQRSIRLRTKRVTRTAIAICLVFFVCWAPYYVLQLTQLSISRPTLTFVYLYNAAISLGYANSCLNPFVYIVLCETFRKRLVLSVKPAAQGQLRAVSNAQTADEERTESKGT
# Assay Procedure: Antagonist activity against MCH1R expressed in CHO cells assessed as inhibition of MCH-induced EC80 […] response by luciferase reporter gene assay
In this section we review reported pIC50 values for a set of molecules.
Value format note: pIC50 is -log10 of concentration (mol/L); just state the number.

Summary for this molecule, Cc1nc2cc(-n3cnc4cc(-c5ccc(Cl)cc5)sc4c3=O)ccc2n1CCN1CCCC1 : pIC50 is 8.70

Summary for this molecule, COCCNc1nc2cc(-n3cnc4cc(-c5ccc(Cl)cc5)sc4c3=O)ccc2[nH]1 : pIC50 is 7.50

Summary for this molecule, Cc1ccc(-n2c(C)nc3cc(-n4cnc5cc(-c6ccc(Cl)cc6)sc5c4=O)ccc32)cc1 : pIC50 is 7.70

Summary for this molecule, Cc1nc2cc(-n3cnc4cc(-c5ccc(Cl)cc5)sc4c3=O)ccc2[nH]1 : pIC50 is 7.60

Summary for this molecule, CNc1nc2cc(-n3cnc4cc(-c5ccc(Cl)cc5)sc4c3=O)ccc2[nH]1 : pIC50 is 8.40

Summary for this molecule, Cc1nc2cc(-n3cnc4cc(-c5ccc(Cl)cc5)sc4c3=O)ccc2n1-c1ccccc1 : pIC50 is 7.50

Summary for this molecule, Cc1nc2cc(-n3cnc4cc(-c5ccc(Cl)cc5)sc4c3=O)ccc2n1CCN1CCOCC1 : pIC50 is 8.20

Summary for this molecule, CN1CCN(c2nc3cc(-n4cnc5cc(-c6ccc(Cl)cc6)sc5c4=O)ccc3[nH]2)CC1 : pIC50 is 7.00

Summary for this molecule, COc1ccc(Cn2c(N(C)C)nc3ccc(-n4cnc5cc(-c6ccc(Cl)cc6)sc5c4=O)cc32)cc1 : pIC50 is 5.60
